System: Saccharomyces cerevisiae BY4741 SeMeCo community
EXPERIMENTAL_PROTOCOL: z-score of subpopulation abundance vs DMSO median, subpopulation auxotrophic for HLU; higher = larger share of this subpopulation than in DMSO controls
EXPERIMENTAL_CONDITIONS: 10 µM; 24 h; SM minimal medium; subpopulation (auxotrophy): HLU
Structures can show the parent of a compound that is named as a salt.
# z-score of subpopulation abundance annotations

Example results:
C=CCCCCCCCCC(=O)[O-].C=CCCCCCCCCC(=O)[O-].[Zn+2] [Zinc Undecylenate] : 3.75
CCOc1cc(NC(C)=O)ccc1C(=O)OC [Ethopabate] : -0.1

What does the data say about its z-score of subpopulation abundance? Entry: Cc1ccc(-c2cc(C(F)(F)F)nn2-c2ccc(S(N)(=O)=O)cc2)cc1
-0.86

Field entry: CCOc1cc(N)c(Cl)cc1C(=O)NCC1CN(Cc2ccc(F)cc2)CCO1 (configuration not stated) [Mosapride Citrate]
0.02

Field entry: CN[C@H]1C(=O)N[C@@H]2Cc3ccc(cc3)Oc3cc4cc(c3O[C@@H]3O[C@H](C(=O)O)[C@@H](O)[C@H](O)[C@H]3NC(=O)CCCCCCCCC(C)C)Oc3ccc(cc3Cl)[C@@H](O)[C@@H]3NC(=O)[C@H](NC(=O)[C@@H]4NC(=O)[C@@H](NC2=O)c2cc(cc(O)c2Cl)Oc2cc1ccc2O)c1ccc(O)c(c1)-c1c(O[C@H]2O[C@H](CO)[C@@H](O)[C@H](O)[C@@H]2O)cc(O)cc1[C@@H](C(=O)NCCCN(C)C)NC3=O
2.43

Field entry: COCCCOc1ccnc(C[S+]([O-])c2nc3ccccc3[nH]2)c1C (configuration not stated) [Rebeprazole sodium]
1.09

Field entry: c1cnc2cc3c(cc2n1)[C@@H]1CNC[C@H]3C1 [Varenicline Tartrate]
-0.4
